Reported values of apparent Kd for individual entries
Test system: MS2 coat protein
experimental-details: apparent Kd, MS2 coat protein; higher = weaker binding; RNA-MaP array; FMN 200 µM where present
experimental-parameters: designed as: OFF switch for flavin mononucleotide; no ligand
Report field: quantity (unit follows the number).

Here is how some sequences turned out for apparent Kd.
GCCUCAUAGUAGAAGGGACUUCGGCUGUUAAGCAUCAUCUCCAUAUCACAUGAGGAUCACCCAUGUCAGGAUAUACUAAGAGGC :: 0.00695 µM
GUGAGGUCAGGAUAUGCAUGGCGGGACUUGCGUCGUGGCGUGCAGAAGGGACAUGAGGAUCACCCAUGUGGAGU :: 0.157 µM
GAGCUCGAUGAGAAGGGUUACAUGAGGAUCACCCAUGUCGACCUUGGCGUAACAGGAUAUCAUCGGGCUCAGUGCGUUGACACA :: 0.0292 µM
UUGUGCUGAGAGAAGGUUCAAACUACAUAUUGCGCACAUGAGGAUCACCCAUGUUGGUGAAUAAGAAAGGAUAUUUUACUGUAU :: 0.244 µM
UUGUUAAAUGAAGGAUAUACUUAACAUGAGGAUCACCCAUGUGGUGUUGUGAGUGAGUGAGUUUAGUAGAAGGUCAAUUCUUUU :: 0.229 µM

Q) Quick check: apparent Kd on MS2 coat protein, item UAUGUGUCAGGAUAUUAGUAGUAAAUAAAUAAAAUUAUUACUGAGAAGGGACAUGAGGAUCACCCAUGUGCCUC ?
A) 0.0328 µM

Q) Quick check: apparent Kd on MS2 coat protein, item UGCAUGGUAGGAUAUACGGAACAUUAGGGUUUGUUAUGUGGACAUGAGGAUCACCCAUGUAGAAGGGCCGUGCU ?
A) 0.0459 µM

Q) Quick check: apparent Kd on MS2 coat protein, item GCACUUUUAUUUGAACCGUUUCGAACAUGAGGAUCACCCAUGUAGGAUAUGCUAAAAGUUGUGAUGCAGAAGGACAUUAAGUGC ?
A) 0.00694 µM

Q) Quick check: apparent Kd on MS2 coat protein, item CUGGUUGUCGAGGAUAUGUCCCGGCUCGCUGACGCAGAAGGCGACACAUGAGGAUCACCCAUGUCGGUUCGCGU ?
A) 0.0201 µM

Q) Quick check: apparent Kd on MS2 coat protein, item UUUCGGCAUGUAGGAUAUGGAUCCGAUUAGGAUUUAGAAGGACAUGAGGAUCACCCAUGUGCAUUUAAUUGGUCAUUACCGUUU ?
A) 0.0585 µM

Q) Quick check: apparent Kd on MS2 coat protein, item UUCGUGCAGCUUUGCUGUACGCGUACAUGAGGAUCACCCAUGUAGGAUAUGGUAGGCUUUGUUUACUAGAAGGAUAGUGUGAUC ?
A) 0.14 µM

Q) Quick check: apparent Kd on MS2 coat protein, item UCCGCCAAAGGAUAUACUGGGCGUUAAAAUCCUCUUAAAAGACAUGAGGAUCACCCAUGUAGAAGGUUGAGGAA ?
A) 0.209 µM

Values compiled from the EternaBench riboswitch data.
